Kindly find below pIC50 information for Tryptophan 2,3-dioxygenase (Homo sapiens, UniProt P48775) taken from the literature.
Scale explanation: pIC50 corresponds to minus log10 of a concentration expressed in moles per litre.

Answered cases to consult:
Cc1cc(-c2cnn(C)c2)ccc1N1CCC(C2c3c(F)cccc3-c3cncn32)CC1 (stereo not given) = 6.65
Clc1cccc(-c2nccc3c2[nH]c2ccccc23)c1 = 4.87
O=C(NC[C@H]1CC[C@H](C(=O)/C(=N/O)Nc2ccc(F)c(Br)c2)CC1)c1ccccc1 = 4.09

Retrieve pIC50 measured for N#Cc1ccc(-c2nccc3c2[nH]c2ccccc23)cc1 and print it. 4.92

Given the molecule FC(F)(F)c1cccc(-c2nccc3c2[nH]c2ccccc23)c1 , write its reported pIC50. 5.27

Check the records and state pIC50 for Fc1cccc2c1C(Cc1ccccc1)n1cncc1-2 (stereo not given) 6.10

Identify measured pIC50 corresponding to N#Cc1cccc(-c2nccc3c2[nH]c2ccccc23)c1 4.81

Give me measured pIC50, please, for this molecule: Cn1cc(-c2cccc(N3CCC(C4c5c(F)cccc5-c5cncn54)CC3)c2)cn1 (stereo not given) 6.19

====

Compiled from multiple publications: pIC50 readings for Tryptophan 2,3-dioxygenase (Homo sapiens).
Would you please state pIC50, meaning minus log10 of the concentration in mol/L, as a bare number?

// below: answered molecules
Fc1cccc(-c2nccc3c2[nH]c2ccccc23)c1 = 4.96
NS(=O)(=O)NC[C@H]1CC[C@H](C(=O)/C(=N/O)Nc2ccc(F)c(Br)c2)CC1 = 4.23
Fc1cccc2c1C(C1CCCC1)n1cncc1-2 (stereo unspecified) = 7.02
O=C(/C(=N/O)Nc1ccc(F)c(Br)c1)c1cncs1 = 4.93
Clc1ccc(-c2nccc3c2[nH]c2ccccc23)cc1 = 5.08
Fc1cccc2c1C(C1CCCCC1)n1cncc1-2 (stereo unspecified) = 7.07

Shifting focus to the molecule that follows.
Using Tryptophan 2,3-dioxygenase (Homo sapiens) as the test system, report measured pIC50 of O=C(/C(=N/O)Nc1ccc(F)c(Br)c1)C1CCN(C(=O)NCc2ccccc2)CC1 . 4.05

====

// merged dataset of pIC50 values, system = UniProt:P48775, multiple refs
pIC50 field: float, defined as -log10 of concentration (mol/L).

These recorded examples may help you get a feel for the data.
O=C(/C(=N/O)Nc1ccc(F)c(Br)c1)C1CCN(S(=O)(=O)Nc2ccccc2)CC1 = 4.18
Fc1cccc2c1C(C1CCN(c3ccc(N4CCOCC4)cc3)CC1)n1cncc1-2 (stereo unspecified) = 5.99
Fc1cccc2c1C(C1CCN(c3nccs3)CC1)n1cncc1-2 (stereo unspecified) = 6.23

Recall the reported pIC50 of CN1CCN(c2ccc3nc4n(c(=O)c3c2)-c2ccc(F)cc2C4=O)CC1 when tested on UniProt:P48775. 6.12

# return pIC50 of Cn1ccc2ccc(N3CCC(C4c5c(F)cccc5-c5cncn54)CC3)cc21 (stereo unspecified) (system: UniProt:P48775) 6.42

Write pIC50 of c1ccc2c(c1)[nH]c1c(-c3ccoc3)nccc12 ; system used: UniProt:P48775 5.94

Fetch value of pIC50 on UniProt:P48775 for Fc1cccc2c1C(C1CCOCC1)n1cncc1-2 (stereo unspecified) . 6.72

// fetch pIC50; item: c1ccc2c(c1)[nH]c1c(-c3ccsc3)nccc12 ; system: UniProt:P48775 6.09

Give pIC50 for this entry on UniProt:P48775: Fc1cccc2c1C(C1CCN(c3ccc(-c4cccnc4)cc3)CC1)n1cncc1-2 (stereo unspecified) 6.74
